Source listed as patent US20240182481A1.

Assay read-out IC50; system under study: USP1-UAF1 (Homo sapiens).
Sequence (O94782 whole entry): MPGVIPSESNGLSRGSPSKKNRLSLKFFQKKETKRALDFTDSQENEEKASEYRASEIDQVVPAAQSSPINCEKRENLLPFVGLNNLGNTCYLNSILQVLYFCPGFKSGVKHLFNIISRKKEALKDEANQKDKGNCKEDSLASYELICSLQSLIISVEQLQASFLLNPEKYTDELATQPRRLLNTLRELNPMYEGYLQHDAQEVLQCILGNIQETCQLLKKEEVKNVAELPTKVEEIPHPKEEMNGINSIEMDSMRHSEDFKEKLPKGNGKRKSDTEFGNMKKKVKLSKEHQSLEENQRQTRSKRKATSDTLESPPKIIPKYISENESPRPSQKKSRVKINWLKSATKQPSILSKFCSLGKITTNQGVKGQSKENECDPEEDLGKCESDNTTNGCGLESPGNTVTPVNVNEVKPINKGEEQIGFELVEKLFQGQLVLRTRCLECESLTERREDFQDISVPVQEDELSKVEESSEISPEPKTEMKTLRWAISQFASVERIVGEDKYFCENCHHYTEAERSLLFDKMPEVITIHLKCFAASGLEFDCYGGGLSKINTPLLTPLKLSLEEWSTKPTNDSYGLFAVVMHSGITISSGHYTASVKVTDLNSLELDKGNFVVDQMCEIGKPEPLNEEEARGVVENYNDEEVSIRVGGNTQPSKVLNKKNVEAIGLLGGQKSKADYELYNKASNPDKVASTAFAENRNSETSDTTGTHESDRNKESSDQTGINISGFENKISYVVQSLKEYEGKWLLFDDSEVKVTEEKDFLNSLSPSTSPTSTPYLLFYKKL
Sequence (Q8TAF3 whole entry partner): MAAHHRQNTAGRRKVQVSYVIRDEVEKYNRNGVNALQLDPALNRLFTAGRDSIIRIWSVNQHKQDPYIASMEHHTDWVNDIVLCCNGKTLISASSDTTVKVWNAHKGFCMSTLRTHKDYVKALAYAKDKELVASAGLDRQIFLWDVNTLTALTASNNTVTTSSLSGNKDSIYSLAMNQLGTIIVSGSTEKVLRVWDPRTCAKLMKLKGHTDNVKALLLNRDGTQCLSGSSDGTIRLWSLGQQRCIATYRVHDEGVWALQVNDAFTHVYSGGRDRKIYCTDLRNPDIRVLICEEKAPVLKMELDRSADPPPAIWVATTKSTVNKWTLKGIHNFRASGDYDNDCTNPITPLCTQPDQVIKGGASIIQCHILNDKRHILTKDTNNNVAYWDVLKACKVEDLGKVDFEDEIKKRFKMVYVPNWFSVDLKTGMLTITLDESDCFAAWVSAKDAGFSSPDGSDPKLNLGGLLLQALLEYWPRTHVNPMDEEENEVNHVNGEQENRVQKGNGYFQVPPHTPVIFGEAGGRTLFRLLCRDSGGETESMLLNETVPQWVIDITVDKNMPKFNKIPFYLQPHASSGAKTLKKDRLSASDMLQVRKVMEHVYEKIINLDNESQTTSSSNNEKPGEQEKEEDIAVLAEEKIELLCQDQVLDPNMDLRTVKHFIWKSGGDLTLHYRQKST

Recorded results for 5 compounds are shown here.
CC(C)c1ccccc1-c1ncc2[nH]cc(C(O)c3ccc(-c4nc(C(F)(F)F)cn4C)cc3)c2n1 (stereo not shown) [Compound 1]    30 to 100 nM
COc1cccc(OC)c1-c1ncc2[nH]nc(Cc3ccc(-c4nc(C(F)(F)F)cn4C)cc3)c2n1 [Compound 136]    < 30 nM
Cn1cc(C(F)(F)F)nc1-c1ccc(Cc2c[nH]c3cnc(-c4cccnc4N4CCC45CCOC5)nc23)cc1 (stereo not shown) [Compound 32]    100 to 10000 nM
CC(C)c1ccccc1-c1ncc2[nH]cc(Nc3ccc(-c4nc(C(F)(F)F)cn4C)cc3)c2n1 [Compound 62]    100 to 10000 nM
CN(c1ccc(-c2nc(C(F)(F)F)cn2C)cc1)c1c[nH]c2cnc(-c3ccccc3C3CC3)nc12 [Compound 13]    100 to 10000 nM

Exercise: Provide the documented IC50 with USP1-UAF1 (Homo sapiens) as the system for [2H]C([2H])([2H])n1nc(Cc2ccc(-c3nc(C(F)(F)F)cn3C)cc2)c2nc(-c3c(OC)ncnc3C3CC3)ncc21 [Compound 143]
Solution: < 30 nM
